Tested on: Trypanosoma cruzi 6-phosphofructokinase
Experiment: Confirmatory Assay to Find Inhibitors of T. brucei phosphofructokinase: Counter Screen against T cruzi PFK
Settings: ADP-Glo luminescence, 45 min; series mostly up to 57.5 µM
Protocol: Various species of the protozoan family Trypanosomatidae are responsible for a range of serious human diseases in tropical and subtropical areas of the world. […] Substrate buffer was dispensed into white, solid 1536-well plates at 3 uL/well in 0.1M triethanolamine (TEA) buffer, pH 8.0, containing final concentrations of 5 mM MgCl2, 0.01% Tween20, 0.6mM fructose-6-phosphate (F6P) and 0.1mM ATP. […] The %Activity was determined from the corrected luminescence values. […]
Results filed as inconclusive are left out. Activity calls are given as the source filed them. The call rests on the fitted dose curve; in most records, active means well fitted inhibition curve with a large enough effect; inconclusive means small, poorly fitted or top-dose-only effect; inactive means flat fitted curve, though single readings scatter.
Log the outcome using a class from true for active, false for inactive

## Task Look up the recorded call for "Cc1cc(NS(=O)(=O)CCNC(=O)Cc2ccc(Cl)c(Cl)c2)no1" in this test.
## Result true

## Task Look up the recorded call for "COc1ccc(CC(=O)Nc2ccc(S(=O)(=O)Nc3cc(C)on3)cc2)cc1OC" in this test.
## Result false

## Task Look up the recorded call for "O=C(Cc1ccc(Cl)c(Cl)c1)Nc1ccc(S(=O)(=O)Nc2cncnc2)cc1" in this test.
## Result true

## Task Look up the recorded call for "Cc1cc(NS(=O)(=O)Cc2ccc(NC(=O)Cc3ccc(Cl)c(Cl)c3)cc2)no1" in this test.
## Result true

## Task Look up the recorded call for "Cc1cc(NS(=O)(=O)c2ccc(NC(=O)Cc3ccc(Cl)c(Cl)c3)cc2)n(C)n1" in this test.
## Result true

## Task Look up the recorded call for "Cc1cc(NS(=O)(=O)c2ccc(NC(=O)Cc3ccc(Cl)cc3Cl)cc2)no1" in this test.
## Result true

## Task Look up the recorded call for "O=C(Cc1ccc(Cl)c(Cl)c1)Nc1ccc(S(=O)(=O)O)cc1" in this test.
## Result true

## Task Look up the recorded call for "O=C(Cc1ccc(Cl)c(Cl)c1)Nc1ccc(S(=O)(=O)Nc2ccn[nH]2)cc1" in this test.
## Result true

## Task Look up the recorded call for "Cc1cc(NS(=O)(=O)c2ccc(C(=O)NCc3ccc(Cl)c(Cl)c3)cc2)no1" in this test.
## Result true

## Task Look up the recorded call for "O=C(Cc1ccc(Cl)c(Cl)c1)Nc1ccc(S(=O)(=O)Nc2cccc(O)c2)cc1" in this test.
## Result true

## Task Look up the recorded call for "Cc1cc(NS(=O)(=O)c2ccc(NCCc3ccc(Cl)c(Cl)c3)cc2)no1" in this test.
## Result true

## Task Look up the recorded call for "Cc1cc(NS(=O)(=O)c2ccc(NC(=O)Cc3cccc(Cl)c3)cc2)no1" in this test.
## Result true

## Task Look up the recorded call for "Cc1cc(NS(=O)(=O)c2ccc(NC(=O)Cc3ccc(Cl)c(Cl)c3)cc2)no1" in this test.
## Result true

## Task Look up the recorded call for "Cc1cc(NS(=O)(=O)c2ccc(NC(=O)Cc3ccc(Cl)cc3)cc2)no1" in this test.
## Result true

## Task Look up the recorded call for "O=C(Cc1ccc(Cl)c(Cl)c1)Nc1ccc(S(=O)(=O)Nc2ccon2)cc1" in this test.
## Result true

---

tested on: Trypanosoma cruzi 6-phosphofructokinase; assay: Confirmatory Assay to Find Inhibitors of T. brucei phosphofructokinase: Counter Screen against T cruzi PFK; settings: ADP-Glo luminescence, 45 min; series mostly up to 57.5 µM
Results filed as inconclusive are left out. Activity calls are given as the source filed them. The call rests on the fitted dose curve; in most records, active means well fitted inhibition curve with a large enough effect; inconclusive means small, poorly fitted or top-dose-only effect; inactive means flat fitted curve, though single readings scatter.
Log the outcome using a class from 1.0 for active, 0.0 for inactive

## Task Look up the recorded call for "Cc1cc(NS(=O)(=O)c2ccc(NC(=O)Cc3ccc4ccccc4c3)cc2)no1" in this test.
## Result 1.0

## Task Look up the recorded call for "O=C(Cc1ccc(Cl)c(Cl)c1)Nc1ccc(S(=O)(=O)Nc2ccccc2)cc1" in this test.
## Result 1.0

## Task Look up the recorded call for "Cc1cc(NS(=O)(=O)c2ccc(NC(=O)CCc3ccc(Cl)c(Cl)c3)cc2)no1" in this test.
## Result 1.0

## Task Look up the recorded call for "Cc1cc(NS(=O)(=O)c2ccc(NS(=O)(=O)Cc3ccc(Cl)c(Cl)c3)cc2)no1" in this test.
## Result 0.0

## Task Look up the recorded call for "Cc1cc(NS(=O)(=O)c2ccc(NC(=O)Cc3ccc(Cl)c(F)c3)cc2)no1" in this test.
## Result 1.0
